molecular target: HIV-1 reverse transcriptase (Human immunodeficiency virus type 1 group M subtype B); construct: Reverse transcriptase enzyme from the LAV strain; made in house; host or cells: E. coli JM109, DNA clone pBRTprtl+ in expression vector pIBI21 (lac promoter); experiment: Reverse Transcriptase (RT) Assay: inhibition of RNA-dependent DNA polymerase activity, cell-free, poly r(C)/oligo d(G) template, 3H-dGTP substrate; format: biochemical, Human Immunodeficiency Virus (HIV-1), LAV strain; conditions: @ 10 μg/ml; room temperature, 60 minutes
ASSAY ENDPOINT: inhibition at 10 µg/mL (%)

INSERT INTO assay_data (molecule, assay_endpoint, obs_value) VALUES
  ('CCC(C)N1C(=O)c2ccccc2Oc2ncccc21 (stereo not drawn)', 'inhibition at 10 µg/mL', 50),
  ('C=C(C)CN1C(=O)c2ccccc2Oc2ncccc21', 'inhibition at 10 µg/mL', 47),
  ('CCN1C(=O)c2ccc(C)cc2Oc2ncccc21', 'inhibition at 10 µg/mL', 30),
  ('CSCCN1C(=O)c2ccccc2Oc2nc(Cl)ccc21', 'inhibition at 10 µg/mL', 99),
  ('CN1C(=O)c2ccccc2Oc2ncccc21', 'inhibition at 10 µg/mL', 30),
  ('CCC(=O)N1C(=O)c2cc(C)ccc2Oc2ncccc21', 'inhibition at 10 µg/mL', 49),
  ('CN1C(=O)c2cc(N)ccc2Oc2ncccc21', 'inhibition at 10 µg/mL', 50),
  ('CCN1C(=O)c2cccc(C)c2Oc2ncccc21', 'inhibition at 10 µg/mL', 83),
  ('CC=CCN1C(=O)c2ccccc2Oc2ncccc21', 'inhibition at 10 µg/mL', 39),
  ('C=CCN1C(=O)c2cccc(C)c2Oc2ncccc21', 'inhibition at 10 µg/mL', 84),
  ('C=CCN1C(=O)c2ccccc2Oc2nc(Cl)ccc21', 'inhibition at 10 µg/mL', 96),
  ('C=C(Cl)CN1C(=O)c2ccccc2Oc2ncccc21', 'inhibition at 10 µg/mL', 66);
